- experimental.details: soluble on expression in E. coli; label from the status in PepcDB or PDB records

| residues | soluble on expression in E. coli |
| --- | --- |
| SMDTNADIYDQTASTFFPNGEAMWKKMVEDLKKAEKFIFLEYYIIEEGLMWNRILDILEQKVAQGVEVKMLYDDIGCMATLTGDYAHRLRQLGIEAHKFNKVIPRLTVAYNNRDHRKILIVDGQIAYTGGVNLADEYINHVERFGYWKDSGIRLDGLAVKALTRLFLTTWYINRGEISDFDQYH | not soluble |
| MNRKGYKSGFVSIIGRPNVGKSTFLNRIIGQKIAIMSDKPQTTRNKIQGVYTENDSQVIFIDTPGIHKPKHKLGDFMVKMAQTTLKEVDIVLFMVNAVEGFGRGEEFIIEKLKETKQPVFLVINKIDQVHPEQLLELIDQYRKLHDFAEIVPISALDGNNAEALIGTIKKYLPEGPQYYPDNQVTDHPERFIIAELIREKVLHLTREEVPHSVAVVIDAIQKREGGAVYINATIVVERPSQKGIIIGKQGKMLKEVGKRARFDIEALLGSKVFLEVWVKVQKDWRNKMSQLRDLGFREDEY | not soluble |
